For each record, write down the corresponding MIC.
- Tested on: Salmonella typhimurium
- assayExplanation: Antibacterial activity against Salmonella typhimurium 7731 after 18 to 24 hrs by CLSI-based broth microdilution method
- Format: functional, Salmonella enterica subsp. enterica serovar Typhimurium
- conditions: Salmonella enterica, time hrs 18-24
Where a SMILES comes first, the peptide text is derived from it.

input: Param item = CC(C)[C@H](N)C(=O)N[C@@H](CS)C(=O)N[C@@H](CCCNC(=N)N)C(=O)N[C@@H](CCCCN)C(=O)N1CCC[C@H]1C(=O)N[C@H](C(=O)N[C@H](C(=O)N[C@@H](CS)C(=O)N[C@@H](CCCNC(=N)N)C(=O)N[C@@H](CCCCN)C(=O)N1CCC[C@H]1C(=O)N[C@H](C(N)=O)C(C)C)C(C)C)C(C)C (H-VCRKPVVCRKPV-NH2) ; retrieve measured MIC.
output: > 64 µM

input: And then CC[C@H](C)[C@H](N)C(=O)N[C@@H](CS)C(=O)N[C@@H](CCCNC(=N)N)C(=O)N[C@@H](CCCCN)C(=O)N1CCC[C@H]1C(=O)N[C@H](C(=O)N[C@H](C(=O)N[C@@H](CS)C(=O)N[C@@H](CCCNC(=N)N)C(=O)N[C@@H](CCCCN)C(=O)N1CCC[C@H]1C(=O)N[C@H](C(N)=O)[C@@H](C)CC)[C@@H](C)CC)[C@@H](C)CC (H-ICRKPIICRKPI-NH2) , what is it?
output: > 64 µM

input: CC[C@H](C)[C@H](N)C(=O)N[C@H](C(=O)N[C@@H](CS)C(=O)N[C@@H](CCCNC(=N)N)C(=O)N[C@@H](CCCCN)C(=O)N1CCC[C@H]1C(=O)N[C@H](C(=O)N[C@H](C(=O)N[C@@H](CS)C(=O)N[C@@H](CCCNC(=N)N)C(=O)N[C@@H](CCCCN)C(=O)N1CCC[C@H]1C(=O)N[C@H](C(=O)N[C@H](C(N)=O)[C@@H](C)CC)[C@@H](C)CC)[C@@H](C)CC)[C@@H](C)CC)[C@@H](C)CC (H-IICRKPIICRKPII-NH2) , same question.
output: 32 µM

====

- assayExplanation: Therapeutic index, ratio of MHC for human RBC to geometric mean of peptide MIC for Salmonella choleraesuis 503
- Assay type: toxicity
- conditions: human red blood cells (RBC), read-out: TI
Where a SMILES comes first, the peptide text is derived from it.
Hi there, I'd appreciate the recorded selectivity ratio for every entry that follows.
// keep it numeric: no unit symbol after the value

input: What value of selectivity ratio has been recorded for this entry: CC(C)[C@H](N)C(=O)N[C@@H](CS)C(=O)N[C@@H](CCCNC(=N)N)C(=O)N[C@@H](CCCCN)C(=O)N1CCC[C@H]1C(=O)N[C@H](C(=O)N[C@H](C(=O)N[C@@H](CS)C(=O)N[C@@H](CCCNC(=N)N)C(=O)N[C@@H](CCCCN)C(=O)N1CCC[C@H]1C(=O)N[C@H](C(=O)N[C@H](C(=O)N[C@@H](CS)C(=O)N[C@@H](CCCNC(=N)N)C(=O)N[C@@H](CCCCN)C(=O)N1CCC[C@H]1C(=O)N[C@H](C(N)=O)C(C)C)C(C)C)C(C)C)C(C)C)C(C)C (H-VCRKPVVCRKPVVCRKPV-NH2)
output: 6.35

input: How about this molecule: CC[C@H](C)[C@H](N)C(=O)N[C@@H](CS)C(=O)N[C@@H](CCCNC(=N)N)C(=O)N[C@@H](CCCCN)C(=O)N1CCC[C@H]1C(=O)N[C@H](C(=O)N[C@H](C(=O)N[C@@H](CS)C(=O)N[C@@H](CCCNC(=N)N)C(=O)N[C@@H](CCCCN)C(=O)N1CCC[C@H]1C(=O)N[C@H](C(=O)N[C@H](C(=O)N[C@@H](CS)C(=O)N[C@@H](CCCNC(=N)N)C(=O)N[C@@H](CCCCN)C(=O)N1CCC[C@H]1C(=O)N[C@H](C(N)=O)[C@@H](C)CC)[C@@H](C)CC)[C@@H](C)CC)[C@@H](C)CC)[C@@H](C)CC (H-ICRKPIICRKPIICRKPI-NH2)
output: 11.3

input: Could you do the same for CC[C@H](C)[C@H](N)C(=O)N[C@H](C(=O)N[C@@H](CS)C(=O)N[C@@H](CCCNC(=N)N)C(=O)N[C@@H](CCCCN)C(=O)N1CCC[C@H]1C(=O)N[C@H](C(=O)N[C@H](C(=O)N[C@@H](CS)C(=O)N[C@@H](CCCNC(=N)N)C(=O)N[C@@H](CCCCN)C(=O)N1CCC[C@H]1C(=O)N[C@H](C(=O)N[C@H](C(N)=O)[C@@H](C)CC)[C@@H](C)CC)[C@@H](C)CC)[C@@H](C)CC)[C@@H](C)CC (H-IICRKPIICRKPII-NH2) , please?
output: 4

====

I'd be grateful if you could share measured viability at 128 µM for these entries.
- assayExplanation: Cytotoxicity against HEK-293T cells assessed as cell viability at 128 uM by MTT assay relative to control
- Format: cell-based
- conditions: human, read-out: Activity
Where a SMILES comes first, the peptide text is derived from it.

input: Name the reported viability at 128 µM value associated with the molecule CC[C@H](C)[C@H](N)C(=O)N[C@@H](CS)C(=O)N[C@@H](CCCNC(=N)N)C(=O)N[C@@H](CCCCN)C(=O)N1CCC[C@H]1C(=O)N[C@H](C(=O)N[C@H](C(=O)N[C@@H](CS)C(=O)N[C@@H](CCCNC(=N)N)C(=O)N[C@@H](CCCCN)C(=O)N1CCC[C@H]1C(=O)N[C@H](C(=O)N[C@H](C(=O)N[C@@H](CS)C(=O)N[C@@H](CCCNC(=N)N)C(=O)N[C@@H](CCCCN)C(=O)N1CCC[C@H]1C(=O)N[C@H](C(N)=O)[C@@H](C)CC)[C@@H](C)CC)[C@@H](C)CC)[C@@H](C)CC)[C@@H](C)CC (H-ICRKPIICRKPIICRKPI-NH2)
output: > 90%

input: Ok, now CC[C@H](C)[C@H](N)C(=O)N[C@H](C(=O)N[C@H](C(=O)N[C@@H](CS)C(=O)N[C@@H](CCCNC(=N)N)C(=O)N[C@@H](CCCCN)C(=O)N1CCC[C@H]1C(=O)N[C@H](C(=O)N[C@H](C(=O)N[C@@H](CS)C(=O)N[C@@H](CCCNC(=N)N)C(=O)N[C@@H](CCCCN)C(=O)N1CCC[C@H]1C(=O)N[C@H](C(=O)N[C@H](C(=O)N[C@H](C(N)=O)[C@@H](C)CC)[C@@H](C)CC)[C@@H](C)CC)[C@@H](C)CC)[C@@H](C)CC)[C@@H](C)CC)[C@@H](C)CC (H-IIICRKPIICRKPIII-NH2)
output: > 90%

====

- assayExplanation: Cytotoxicity against HEK-293T cells assessed as cell viability at 128 uM by MTT assay relative to control
- Assay type: cell-based
- conditions: human, read-out: Activity
Where a SMILES comes first, the peptide text is derived from it.
Can you tell me viability at 128 µM for the items I'm about to list?

input: Quick check: viability at 128 µM of CC[C@H](C)[C@H](N)C(=O)N[C@@H](CS)C(=O)N[C@@H](CCCNC(=N)N)C(=O)N[C@@H](CCCCN)C(=O)N1CCC[C@H]1C(=O)N[C@H](C(=O)N[C@H](C(=O)N[C@@H](CS)C(=O)N[C@@H](CCCNC(=N)N)C(=O)N[C@@H](CCCCN)C(=O)N1CCC[C@H]1C(=O)N[C@H](C(N)=O)[C@@H](C)CC)[C@@H](C)CC)[C@@H](C)CC (H-ICRKPIICRKPI-NH2) ?
output: > 90%

input: Note, next up: CC[C@H](C)[C@H](N)C(=O)N[C@H](C(=O)N[C@@H](CS)C(=O)N[C@@H](CCCNC(=N)N)C(=O)N[C@@H](CCCCN)C(=O)N1CCC[C@H]1C(=O)N[C@H](C(=O)N[C@H](C(=O)N[C@@H](CS)C(=O)N[C@@H](CCCNC(=N)N)C(=O)N[C@@H](CCCCN)C(=O)N1CCC[C@H]1C(=O)N[C@H](C(=O)N[C@H](C(N)=O)[C@@H](C)CC)[C@@H](C)CC)[C@@H](C)CC)[C@@H](C)CC)[C@@H](C)CC (H-IICRKPIICRKPII-NH2)
output: > 90%

input: // repeat for CC(C)[C@H](N)C(=O)N[C@@H](CS)C(=O)N[C@@H](CCCNC(=N)N)C(=O)N[C@@H](CCCCN)C(=O)N1CCC[C@H]1C(=O)N[C@H](C(=O)N[C@H](C(=O)N[C@@H](CS)C(=O)N[C@@H](CCCNC(=N)N)C(=O)N[C@@H](CCCCN)C(=O)N1CCC[C@H]1C(=O)N[C@H](C(N)=O)C(C)C)C(C)C)C(C)C (H-VCRKPVVCRKPV-NH2) and report
output: > 90%

input: Try CC(C)[C@H](N)C(=O)N[C@@H](CS)C(=O)N[C@@H](CCCNC(=N)N)C(=O)N[C@@H](CCCCN)C(=O)N1CCC[C@H]1C(=O)N[C@H](C(=O)N[C@H](C(=O)N[C@@H](CS)C(=O)N[C@@H](CCCNC(=N)N)C(=O)N[C@@H](CCCCN)C(=O)N1CCC[C@H]1C(=O)N[C@H](C(=O)N[C@H](C(=O)N[C@@H](CS)C(=O)N[C@@H](CCCNC(=N)N)C(=O)N[C@@H](CCCCN)C(=O)N1CCC[C@H]1C(=O)N[C@H](C(N)=O)C(C)C)C(C)C)C(C)C)C(C)C)C(C)C (H-VCRKPVVCRKPVVCRKPV-NH2) next.
output: > 90%
